Quick list: BRET β-Arrestin2 High AT1R Expression Ymax (%) per entry.
Target: hAT1R (Homo sapiens, UniProt P30556)
Sequence (P30556 1-359): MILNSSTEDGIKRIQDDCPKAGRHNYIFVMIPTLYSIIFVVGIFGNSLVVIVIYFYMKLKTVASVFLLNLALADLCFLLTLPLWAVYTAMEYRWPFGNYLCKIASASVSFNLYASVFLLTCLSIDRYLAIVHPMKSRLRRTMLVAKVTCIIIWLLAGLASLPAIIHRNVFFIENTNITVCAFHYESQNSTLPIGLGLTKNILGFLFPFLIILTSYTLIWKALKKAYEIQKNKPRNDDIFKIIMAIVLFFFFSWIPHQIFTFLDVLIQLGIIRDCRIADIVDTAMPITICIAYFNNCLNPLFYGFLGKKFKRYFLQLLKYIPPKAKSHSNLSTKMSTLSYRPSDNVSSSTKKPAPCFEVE
Test: BRET β-arrestin2 biosensor assay, higher receptor expression (hAT1R 5 ng/well), HEK293 cells
Assay type: cell-based
// note: answer is a bare numeric in %

Recorded results for 5 compounds are shown here.
compound="CCc1nc2c(C)cc(C)nc2n1Cc1ccc(-c2cc(-c3ccccc3)ccc2-c2nnn[nH]2)nc1 [Example 176]" target="hAT1R (Homo sapiens, UniProt P30556)" unit_text=% recorded_number=79.1
compound="CCCCc1ncc(C(=O)NC2CCCCC2)n1Cc1ccc(-c2cc(-c3ccccc3)ccc2-c2nn[nH]n2)cc1 [Example 354]" target="hAT1R (Homo sapiens, UniProt P30556)" unit_text=% recorded_number=99.5
compound="CCc1nc2c(C)cc(C)nc2n1Cc1ccc(-c2cc(-c3ccccc3)ccc2-c2noc(=O)[nH]2)cc1 [Example 32]" target="hAT1R (Homo sapiens, UniProt P30556)" unit_text=% recorded_number=91.6
compound="CCCCc1ncc(C(=O)NC(C)(C)C)n1Cc1ccc(-c2cc(-c3ccccc3)ccc2-c2nn[nH]n2)cc1 [Example 352]" target="hAT1R (Homo sapiens, UniProt P30556)" unit_text=% recorded_number=62.2
compound="CCCCc1ncc(C(=O)O)n1Cc1ccc(-c2cc(-c3ccccc3)ccc2C(=O)O)cc1 [Example 415]" target="hAT1R (Homo sapiens, UniProt P30556)" unit_text=% recorded_number=26.8

// CCCCC1=NC2(CCCC2)C(=O)N1Cc1ccc(-c2cc(-c3cccs3)ccc2-c2nn[nH]n2)cc1 [Example 131] : BRET β-Arrestin2 High AT1R Expression Ymax (%) value = 42.5

// CCCCc1nc(Cl)c(C(=O)O)n1Cc1ccc(-c2cc(N3CC(C)(C)c4ccccc43)ccc2-c2noc(=O)[nH]2)cc1 [Example 405] : BRET β-Arrestin2 High AT1R Expression Ymax (%) value = 95.8
